Reference source for all entries: patent US8658665B2

Target: tau-tau binding: truncated tau (residues 297-390; dGA) on solid phase, full-length tau (T40) in aqueous phase (Homo sapiens, UniProt P10636)
Construct: truncated tau (residues 297-390; dGA); full-length tau (T40) was added in the aqueous phase
Sequence (P10636 614-707): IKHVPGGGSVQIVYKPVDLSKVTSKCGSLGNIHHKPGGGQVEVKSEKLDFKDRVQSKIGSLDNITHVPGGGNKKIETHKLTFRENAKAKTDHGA
Assay: In vitro assay for establishing B50 (tau-tau binding)
Conditions: concentration required to inhibit tau-tau binding by 50%; mean ± SE, number of replications in parentheses; NE = no effect when tested to 500 μM
pIC50: −log10 of the molar value.
Please mark Satisfied if the recorded pIC50 is equal to or greater than 4, and Not satisfied if it falls below.

| compound | class-name |
| --- | --- |
| Cl.Cl.c1cc2c(cc1N1CCCC1)Oc1cc(N3CCCC3)ccc1C2 [Compound AJ, dihydrochloride] | Not satisfied |
| O=[N+]([O-])[O-].c1c2c3c(c4[o+]c5c6c7c(cc5cc14)CCCN7CCC6)CCCN3CCC2 [Compound B, nitrate] | Not satisfied |

Check this compound for pIC50 at or above 4: Cl.Cl.c1cc2c(cc1N1CCCCC1)Oc1cc(N3CCCCC3)ccc1C2 [Compound AK, dihydrochloride]
Not satisfied

Check this compound for pIC50 at or above 4: CC1(C)CCN2CCC(C)(C)c3c4c(cc1c32)C=c1cc2c3c(c1O4)C(C)(C)CC[N+]=3CCC2(C)C [Compound AE]
Not satisfied

Check this compound for pIC50 at or above 4: FC(F)(F)C1=c2cc3c4c(c2Oc2c1cc1c5c2CCCN5CCC1)CCC[N+]=4CCC3 [C]
Not satisfied

Check this compound for pIC50 at or above 4: O=[N+]([O-])[O-].c1cc2cc3ccc(N4CCOCC4)cc3[o+]c2cc1N1CCOCC1 [Compound AF, 3,6-Bis-morpholino-xanthylium nitrate]
Not satisfied

Check this compound for pIC50 at or above 4: CCc1c2ccc(N(CC)CC)cc2[o+]c2cc(N(CC)CC)ccc12.[Cl-] [Compound J]
Not satisfied

Check this compound for pIC50 at or above 4: [Cl-].c1c2c3c(c4[o+]c5c6c7c(cc5cc14)CCCN7CCC6)CCCN3CCC2 [Compound A]
Satisfied

Check this compound for pIC50 at or above 4: CC[N+](CC)=c1ccc2nc3ccc(N(C)C)cc3oc-2c1 [AN]
Not satisfied
